target: BACE1 (Homo sapiens (Human), UniProt P56817); experiment: In vitro enzymatic BACE1 FRET assay; assay type: biochemical; details: pH 4.5, 1 h pre-incubation, read-out: BACE1 Enzyme IC50
Sequence (P56817 46-501): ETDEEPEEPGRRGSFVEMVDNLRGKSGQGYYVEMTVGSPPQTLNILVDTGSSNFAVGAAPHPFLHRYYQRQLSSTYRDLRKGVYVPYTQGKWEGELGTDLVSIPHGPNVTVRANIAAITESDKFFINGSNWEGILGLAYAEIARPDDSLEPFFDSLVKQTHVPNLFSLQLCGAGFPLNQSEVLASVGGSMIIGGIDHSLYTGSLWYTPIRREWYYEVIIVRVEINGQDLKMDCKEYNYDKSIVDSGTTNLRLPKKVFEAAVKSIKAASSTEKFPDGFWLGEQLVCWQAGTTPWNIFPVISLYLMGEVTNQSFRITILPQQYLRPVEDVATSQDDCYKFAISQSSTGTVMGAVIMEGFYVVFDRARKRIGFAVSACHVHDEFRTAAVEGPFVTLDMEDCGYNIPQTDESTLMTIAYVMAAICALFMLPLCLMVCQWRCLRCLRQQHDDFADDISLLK
pIC50: −log10 of the molar value.

# molecule, pIC50
records = [
    ("COC(=O)[C@@H]1C[C@@](C)(c2cc(/C=C(\\F)c3ccc(Cl)cn3)ccc2F)N=C(N)S1 (single isomer, unassigned)", 7.35),
    ("C[C@@]1(c2cc(/C=C(\\F)c3ccc(Cl)cn3)ccc2F)CCSC(N)=N1", 6.91),
    ("C[C@@]1(c2cc(/C=C(\\F)c3ccc(Cl)cn3)ccc2F)C=CSC(N)=N1", 6.66),
    ("C#CCOc1cnc(/C(F)=C/c2ccc(F)c([C@]3(C)C[C@@](C)(C(=O)NCC(F)F)SC(N)=N3)c2)cn1", 7.62),
    ("C#CCOc1cnc(/C(F)=C/c2ccc(F)c([C@]3(C)C[C@](C)(C(=O)NC)SC(N)=N3)c2)cn1", 7.43),
    ("C[C@]1(C(=O)N2CCOCC2)C[C@@](C)(c2cc(/C=C(\\F)c3ccc(C#N)cn3)ccc2F)N=C(N)S1", 7.01),
    ("C#CCOc1cnc(/C(F)=C/c2ccc(F)c([C@]3(C)C[C@@](C)(C(=O)NC)SC(N)=N3)c2)cn1", 7.66),
    ("COC(=O)[C@]1(C)C[C@@](C)(c2cc(/C=C(\\F)c3ccc(Cl)cn3)ccc2F)N=C(N)S1", 7.27),
    ("COC(=O)[C@@]1(C)C[C@@](C)(c2cc(/C=C(\\F)c3ccc(C#N)cn3)ccc2F)N=C(N)S1", 7.80),
    ("CNC(=O)[C@]1(C)C[C@@](C)(c2cc(/C=C(\\F)c3ccc(C#N)cn3)ccc2F)N=C(N)S1", 7.60),
    ("COC(=O)[C@]1(C)C[C@@](C)(c2cc(/C=C(\\F)c3ccc(C#N)cn3)ccc2F)N=C(N)S1", 7.80),
    ("C[C@@]1(c2cc(/C=C(\\F)c3ccc(C#N)cn3)ccc2F)CCSC(N)=N1", 7.13),
    ("C[C@@]1(c2cc(/C=C(\\F)c3ccc(C#N)cn3)ccc2F)C=CSC(N)=N1", 7.01),
    ("COC(=O)[C@@]1(C)C[C@@](C)(c2cc(/C=C(\\F)c3ccc(Cl)cn3)ccc2F)N=C(N)S1", 7.17),
    ("COC(=O)[C@H]1C[C@@](C)(c2cc(/C=C(\\F)c3ccc(Cl)cn3)ccc2F)N=C(N)S1 (single isomer, unassigned)", 6.67),
    ("C[C@@]1(C(=O)N2CCOCC2)C[C@@](C)(c2cc(/C=C(\\F)c3ccc(C#N)cn3)ccc2F)N=C(N)S1", 8.40),
    ("C#CCOc1cnc(/C(F)=C/c2ccc(F)c([C@]3(C)C[C@@](C)(C(=O)N4CCOCC4)SC(N)=N3)c2)cn1", 8.22),
]

----------
target: BACE1 (Homo sapiens (Human), UniProt P56817); test: In vitro BACE1 cell-based assay (Aβ40 in conditioned medium, HTRF); conditions: Aβ40 in conditioned medium of cells stably expressing APP, 24 h
Sequence (P56817 46-501, species assumed): as the sequence (P56817 46-501) above
pIC50: −log10 of the molar value.
Recorded pIC50 for the following compounds

# compound, target desc, pIC50
data = [
    ("COC(=O)[C@@]1(C)C[C@@](C)(c2cc(/C=C(\\F)c3ccc(C#N)cn3)ccc2F)N=C(N)S1 [Example 108]", "BACE1 (Homo sapiens (Human), UniProt P56817)", 7.36),
    ("C[C@@]1(c2cc(/C=C(\\F)c3ccc(C#N)cn3)ccc2F)C=CSC(N)=N1 [Example 101]", "BACE1 (Homo sapiens (Human), UniProt P56817)", 7.31),
    ("C#CCOc1cnc(/C(F)=C/c2ccc(F)c([C@]3(C)C[C@@](C)(C(=O)NC)SC(N)=N3)c2)cn1 [Example 113]", "BACE1 (Homo sapiens (Human), UniProt P56817)", 8.00),
    ("COC(=O)[C@@]1(C)C[C@@](C)(c2cc(/C=C(\\F)c3ccc(Cl)cn3)ccc2F)N=C(N)S1 [Example 107]", "BACE1 (Homo sapiens (Human), UniProt P56817)", 6.28),
    ("C#CCOc1cnc(/C(F)=C/c2ccc(F)c([C@]3(C)C[C@@](C)(C(=O)N4CCOCC4)SC(N)=N3)c2)cn1 [Example 114]", "BACE1 (Homo sapiens (Human), UniProt P56817)", 8.70),
    ("COC(=O)[C@]1(C)C[C@@](C)(c2cc(/C=C(\\F)c3ccc(C#N)cn3)ccc2F)N=C(N)S1 [Example 109]", "BACE1 (Homo sapiens (Human), UniProt P56817)", 7.62),
    ("C#CCOc1cnc(/C(F)=C/c2ccc(F)c([C@]3(C)C[C@@](C)(C(=O)NCC(F)F)SC(N)=N3)c2)cn1 [Example 115]", "BACE1 (Homo sapiens (Human), UniProt P56817)", 7.74),
]

----------
target: Recombinant CatD (Homo sapiens (Human), UniProt P07339); assay: In vitro enzymatic Cathepsin D (CatD) FRET assay; settings: pH 3.5, 1 h pre-incubation, read-out: Cat D Enzyme IC50
Sequence (P07339 65-412): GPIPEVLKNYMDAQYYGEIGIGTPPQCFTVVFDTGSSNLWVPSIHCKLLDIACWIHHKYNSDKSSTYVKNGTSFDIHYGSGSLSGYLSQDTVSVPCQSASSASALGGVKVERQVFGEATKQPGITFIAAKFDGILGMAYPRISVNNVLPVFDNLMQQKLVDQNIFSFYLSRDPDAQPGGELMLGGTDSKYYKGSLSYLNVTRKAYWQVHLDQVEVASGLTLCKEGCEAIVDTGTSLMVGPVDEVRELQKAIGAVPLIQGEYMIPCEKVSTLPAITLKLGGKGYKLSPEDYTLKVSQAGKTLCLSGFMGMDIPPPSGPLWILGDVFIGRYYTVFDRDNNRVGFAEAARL
# note: exactly 90 µM is not below, so it is false; use true for IC50 strictly under it

# molecule, class name
records = [
    ("C[C@@]1(c2cc(/C=C(\\F)c3ccc(C#N)cn3)ccc2F)C=CSC(N)=N1 [Example 101]", "true"),
    ("COC(=O)[C@H]1C[C@@](C)(c2cc(/C=C(\\F)c3ccc(Cl)cn3)ccc2F)N=C(N)S1 (single isomer, unassigned) [Example 104]", "false"),
    ("C#CCOc1cnc(/C(F)=C/c2ccc(F)c([C@]3(C)C[C@@](C)(C(=O)NC)SC(N)=N3)c2)cn1 [Example 113]", "false"),
    ("COC(=O)[C@@]1(C)C[C@@](C)(c2cc(/C=C(\\F)c3ccc(Cl)cn3)ccc2F)N=C(N)S1 [Example 107]", "false"),
    ("C#CCOc1cnc(/C(F)=C/c2ccc(F)c([C@]3(C)C[C@@](C)(C(=O)N4CCOCC4)SC(N)=N3)c2)cn1 [Example 114]", "true"),
    ("COC(=O)[C@@H]1C[C@@](C)(c2cc(/C=C(\\F)c3ccc(Cl)cn3)ccc2F)N=C(N)S1 (single isomer, unassigned) [Example 105]", "true"),
    ("C#CCOc1cnc(/C(F)=C/c2ccc(F)c([C@]3(C)C[C@@](C)(C(=O)NCC(F)F)SC(N)=N3)c2)cn1 [Example 115]", "true"),
    ("C[C@@]1(c2cc(/C=C(\\F)c3ccc(Cl)cn3)ccc2F)CCSC(N)=N1 [Example 102]", "false"),
    ("CNC(=O)[C@]1(C)C[C@@](C)(c2cc(/C=C(\\F)c3ccc(C#N)cn3)ccc2F)N=C(N)S1 [Example 116]", "true"),
    ("COC(=O)[C@]1(C)C[C@@](C)(c2cc(/C=C(\\F)c3ccc(C#N)cn3)ccc2F)N=C(N)S1 [Example 109]", "false"),
    ("COC(=O)[C@@]1(C)C[C@@](C)(c2cc(/C=C(\\F)c3ccc(C#N)cn3)ccc2F)N=C(N)S1 [Example 108]", "false"),
    ("C[C@]1(C(=O)N2CCOCC2)C[C@@](C)(c2cc(/C=C(\\F)c3ccc(C#N)cn3)ccc2F)N=C(N)S1 [Example 111]", "false"),
    ("C[C@@]1(c2cc(/C=C(\\F)c3ccc(Cl)cn3)ccc2F)C=CSC(N)=N1 [Example 100]", "true"),
    ("C[C@@]1(C(=O)N2CCOCC2)C[C@@](C)(c2cc(/C=C(\\F)c3ccc(C#N)cn3)ccc2F)N=C(N)S1 [Example 110]", "false"),
    ("C[C@@]1(c2cc(/C=C(\\F)c3ccc(C#N)cn3)ccc2F)CCSC(N)=N1 [Example 103]", "false"),
    ("C#CCOc1cnc(/C(F)=C/c2ccc(F)c([C@]3(C)C[C@](C)(C(=O)NC)SC(N)=N3)c2)cn1 [Example 112]", "true"),
]

The origin of these recorded values is patent US10889579B2.
